The entries below come with measured MIC values attached.
# Test system: Candida albicans ATCC 76485
# protocol summary: MIC assay, Candida standard strain (CLSI M27-A3)
# Type: cell-based
# condition details: ATCC76485, 24 h, 35° C.
Numbered stars: 1 amine (or outer) side, 2 acyl side, 3 side chain; on linkers, the order of the positions; unused ones are H or OH. Bridge positions count the residues as written; N and C are the ends. Square brackets hold non-standard residues; d marks the D form. Peptide text beside a SMILES is read from it. * marks the point of attachment. Orn(4R-OH,5R-OCH2CH2NMe3+) = C[N+](C)(C)CCO[C@@H](N[*:3])[C@H](O)C[C@H](N[*:1])C(=O)[*:2]; pTerphenylCO(4''-OnC5H11) = CCCCCOc1ccc(-c2ccc(-c3ccc(C(=O)*)cc3)cc2)cc1; hTyr(3S-OH,4S-OH) = N[C@H](C(=O)O)[C@H](O)[C@@H](O)c1ccc(O)cc1; X1 = CCCCCOc1cc(F)c(C#Cc2ccc3cc(C(=O)*)ccc3c2)cc1F; X2 = CCCCCOc1ccc(C#Cc2ccc3cc(C(=O)*)ccc3c2)c(F)c1F; X4 = CCCCCOc1c(F)cc(C#Cc2ccc3cc(C(=O)*)ccc3c2)cc1F; Pro(3S-OH,4S-Me) = C[C@H]1CN[C@H](C(=O)O)[C@H]1O; X3 = CCCCCOc1ccc(C#Cc2ccc3cc(C(=O)*)ccc3c2)cc1F; Hyp = O=C(O)[C@@H]1C[C@@H](O)CN1

compound: CCCCCOc1ccc(C#Cc2ccc3cc(C(=O)N[C@H]4C[C@@H](O)[C@@H](OCC[N+](C)(C)C)NC(=O)[C@@H]5[C@@H](O)[C@@H](C)CN5C(=O)[C@H]([C@@H](C)O)NC(=O)[C@H]([C@H](O)[C@@H](O)c5ccc(O)cc5)NC(=O)[C@@H]5C[C@@H](O)CN5C(=O)[C@H]([C@@H](C)O)NC4=O)ccc3c2)cc1F [Example 10] (X3-[Orn(4R-OH,5R-OCH2CH2NMe3+)]T[Hyp][hTyr(3S-OH,4S-OH)]T[Pro(3S-OH,4S-Me)]; lactam 1-C)
MIC: ≤ 0.015 µg/mL
--
compound: CCCCCOc1ccc(-c2ccc(-c3ccc(C(=O)N[C@H]4C[C@@H](O)[C@@H](OCC[N+](C)(C)C)NC(=O)[C@@H]5[C@@H](O)[C@@H](C)CN5C(=O)[C@H]([C@@H](C)O)NC(=O)[C@H]([C@H](O)[C@@H](O)c5ccc(O)cc5)NC(=O)[C@@H]5C[C@@H](O)CN5C(=O)[C@H]([C@@H](C)O)NC4=O)cc3)cc2)cc1 [Rezafungin, rezafungin, reference compound] ({pTerphenylCO(4''-OnC5H11)}-[Orn(4R-OH,5R-OCH2CH2NMe3+)]T[Hyp][hTyr(3S-OH,4S-OH)]T[Pro(3S-OH,4S-Me)]; lactam 1-C)
MIC: ≤ 0.015 µg/mL
--
compound: CC[C@H](C)C[C@H](C)CCCCCCCCC(=O)N[C@H]1C[C@@H](O)[C@@H](NCCN)NC(=O)[C@@H]2[C@@H](O)CCN2C(=O)[C@H]([C@H](O)CCN)NC(=O)[C@H]([C@H](O)[C@@H](O)c2ccc(O)cc2)NC(=O)[C@@H]2C[C@@H](O)CN2C(=O)[C@H]([C@@H](C)O)NC1=O [Caspofungin, reference compound]
MIC: 0.06 µg/mL
--
compound: CCCCCOc1cc(F)c(C#Cc2ccc3cc(C(=O)N[C@H]4C[C@@H](O)[C@@H](OCC[N+](C)(C)C)NC(=O)[C@@H]5[C@@H](O)[C@@H](C)CN5C(=O)[C@H]([C@@H](C)O)NC(=O)[C@H]([C@H](O)[C@@H](O)c5ccc(O)cc5)NC(=O)[C@@H]5C[C@@H](O)CN5C(=O)[C@H]([C@@H](C)O)NC4=O)ccc3c2)cc1F [Example 16] (X1-[Orn(4R-OH,5R-OCH2CH2NMe3+)]T[Hyp][hTyr(3S-OH,4S-OH)]T[Pro(3S-OH,4S-Me)]; lactam 1-C)
MIC: ≤ 0.015 µg/mL
--
compound: CCCCCOc1ccc(C#Cc2ccc3cc(C(=O)N[C@H]4C[C@@H](O)[C@@H](OCC[N+](C)(C)C)NC(=O)[C@@H]5[C@@H](O)[C@@H](C)CN5C(=O)[C@H]([C@@H](C)O)NC(=O)[C@H]([C@H](O)[C@@H](O)c5ccc(O)cc5)NC(=O)[C@@H]5C[C@@H](O)CN5C(=O)[C@H]([C@@H](C)O)NC4=O)ccc3c2)c(F)c1F [Example 8] (X2-[Orn(4R-OH,5R-OCH2CH2NMe3+)]T[Hyp][hTyr(3S-OH,4S-OH)]T[Pro(3S-OH,4S-Me)]; lactam 1-C)
MIC: ≤ 0.015 µg/mL

Proceeding to the next compound to report its MIC.
Tell me MIC reported for CCCCCOc1c(F)cc(C#Cc2ccc3cc(C(=O)N[C@H]4C[C@@H](O)[C@@H](OCC[N+](C)(C)C)NC(=O)[C@@H]5[C@@H](O)[C@@H](C)CN5C(=O)[C@H]([C@@H](C)O)NC(=O)[C@H]([C@H](O)[C@@H](O)c5ccc(O)cc5)NC(=O)[C@@H]5C[C@@H](O)CN5C(=O)[C@H]([C@@H](C)O)NC4=O)ccc3c2)cc1F [Example 14] (X4-[Orn(4R-OH,5R-OCH2CH2NMe3+)]T[Hyp][hTyr(3S-OH,4S-OH)]T[Pro(3S-OH,4S-Me)]; lactam 1-C)
≤ 0.015 µg/mL

---

# protocol summary: Study on pharmacokinetic properties in rats after intravenous injection
# condition details: SD, rat, in vivo, 5 mg/kg
Numbered stars: 1 amine (or outer) side, 2 acyl side, 3 side chain; on linkers, the order of the positions; unused ones are H or OH. Bridge positions count the residues as written; N and C are the ends. Square brackets hold non-standard residues; d marks the D form. Peptide text beside a SMILES is read from it. * marks the point of attachment. Orn(4R-OH,5R-OCH2CH2NMe3+) = C[N+](C)(C)CCO[C@@H](N[*:3])[C@H](O)C[C@H](N[*:1])C(=O)[*:2]; pTerphenylCO(4''-OnC5H11) = CCCCCOc1ccc(-c2ccc(-c3ccc(C(=O)*)cc3)cc2)cc1; hTyr(3S-OH,4S-OH) = N[C@H](C(=O)O)[C@H](O)[C@@H](O)c1ccc(O)cc1; Pro(3S-OH,4S-Me) = C[C@H]1CN[C@H](C(=O)O)[C@H]1O; Hyp = O=C(O)[C@@H]1C[C@@H](O)CN1
endpoint name: AUC(0-t) (µg·h/mL)
Give just the numeric value; µg·h/mL need not be written.

Tell me AUC(0-t) reported for CCCCCOc1ccc(-c2ccc(-c3ccc(C(=O)N[C@H]4C[C@@H](O)[C@@H](OCC[N+](C)(C)C)NC(=O)[C@@H]5[C@@H](O)[C@@H](C)CN5C(=O)[C@H]([C@@H](C)O)NC(=O)[C@H]([C@H](O)[C@@H](O)c5ccc(O)cc5)NC(=O)[C@@H]5C[C@@H](O)CN5C(=O)[C@H]([C@@H](C)O)NC4=O)cc3)cc2)cc1 [Rezafungin, rezafungin, reference compound] ({pTerphenylCO(4''-OnC5H11)}-[Orn(4R-OH,5R-OCH2CH2NMe3+)]T[Hyp][hTyr(3S-OH,4S-OH)]T[Pro(3S-OH,4S-Me)]; lactam 1-C)
89

---

# protocol summary: in vivo
# condition details: SD, rat, iv, 5 mg/kg
Numbered stars: 1 amine (or outer) side, 2 acyl side, 3 side chain; on linkers, the order of the positions; unused ones are H or OH. Bridge positions count the residues as written; N and C are the ends. Square brackets hold non-standard residues; d marks the D form. Peptide text beside a SMILES is read from it. * marks the point of attachment. Orn(4R-OH,5R-OCH2CH2NMe3+) = C[N+](C)(C)CCO[C@@H](N[*:3])[C@H](O)C[C@H](N[*:1])C(=O)[*:2]; hTyr(3S-OH,4S-OH) = N[C@H](C(=O)O)[C@H](O)[C@@H](O)c1ccc(O)cc1; X1 = CCCCCOc1cc(F)c(C#Cc2ccc3cc(C(=O)*)ccc3c2)cc1F; Pro(3S-OH,4S-Me) = C[C@H]1CN[C@H](C(=O)O)[C@H]1O; Hyp = O=C(O)[C@@H]1C[C@@H](O)CN1
endpoint name: Cmax (ng/mL)
Give just the numeric value; ng/mL need not be written.

Tell me Cmax reported for CCCCCOc1cc(F)c(C#Cc2ccc3cc(C(=O)N[C@H]4C[C@@H](O)[C@@H](OCC[N+](C)(C)C)NC(=O)[C@@H]5[C@@H](O)[C@@H](C)CN5C(=O)[C@H]([C@@H](C)O)NC(=O)[C@H]([C@H](O)[C@@H](O)c5ccc(O)cc5)NC(=O)[C@@H]5C[C@@H](O)CN5C(=O)[C@H]([C@@H](C)O)NC4=O)ccc3c2)cc1F [Example 16] (X1-[Orn(4R-OH,5R-OCH2CH2NMe3+)]T[Hyp][hTyr(3S-OH,4S-OH)]T[Pro(3S-OH,4S-Me)]; lactam 1-C)
12000
